# System: biotinyl-Ile-oxazolone
# procedure-text: self-aminoacylation, catalytic enhancement (BIO) (fold over background); higher = more active; k-Seq, kA / k0A0; sequences stand for … in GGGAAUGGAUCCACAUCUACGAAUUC…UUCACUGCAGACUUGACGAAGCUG
This sample holds only a part of the variants without activity.
1 means recorded self-aminoacylation is 3 or above; 0 means it is below 3.

> print(dat)
                                 biosequence  assigned.class
 1  CCGCAAUUCAAGCAAUCGGUC [Fam1B.1 aminoacylation ribozyme variant]               0
 2  AUUCCGCUGGUCAUCGAGUGA [Fam2.1 aminoacylation ribozyme variant]               1
 3  AUUACCCUGGUCUUGGAGUGA [Fam2.1 aminoacylation ribozyme variant]               0
 4  CGACUUCAAACAUUCGGUCUG [Fam1A.1 aminoacylation ribozyme variant]               0
 5  ACUCACCUAGGUCAUAGGGUG [Fam2.2 aminoacylation ribozyme variant]               0
 6  AAUCACCAAGGUCAUCGGGUG [Fam2.2 aminoacylation ribozyme variant]               1
 7  AUUACCCUGAUCAUCGGGUGA [Fam2.1 aminoacylation ribozyme variant]               1
 8  AUAACCCUGGUCAUCGAGCGA [Fam2.1 aminoacylation ribozyme variant]               0
 9  AUUCACAUAGGUCAUCGGGUA [Fam2.2 aminoacylation ribozyme variant]               0
10  CCAAACUUCAAGCAAUCGGCC [Fam1B.1 aminoacylation ribozyme variant]               0
11  AUUACCCUGGACAUCGAGUGC [Fam2.1 aminoacylation ribozyme variant]               0
12  AUUCACCUGGGUCAUGGGGUG [Fam2.2 aminoacylation ribozyme variant]               1
13  CCACACUUAAAGCACUCGGUC [Fam1B.1 aminoacylation ribozyme variant]               0
14  AUUCACCUAGGUCUUCGGGUA [Fam2.2 aminoacylation ribozyme variant]               1
15  CGUACCCUGGUCAUCGAGUGA [Fam2.1 aminoacylation ribozyme variant]               1
16  CUACUUCAAACAAUCGAUCUG [Fam1A.1 aminoacylation ribozyme variant]               0
